# studyTarget: purified human MAP4K4 kinase domain (Homo sapiens)
# Construct: purified human MAP4K4 kinase domain
# Sequence (O95819 25-289 limits assumed): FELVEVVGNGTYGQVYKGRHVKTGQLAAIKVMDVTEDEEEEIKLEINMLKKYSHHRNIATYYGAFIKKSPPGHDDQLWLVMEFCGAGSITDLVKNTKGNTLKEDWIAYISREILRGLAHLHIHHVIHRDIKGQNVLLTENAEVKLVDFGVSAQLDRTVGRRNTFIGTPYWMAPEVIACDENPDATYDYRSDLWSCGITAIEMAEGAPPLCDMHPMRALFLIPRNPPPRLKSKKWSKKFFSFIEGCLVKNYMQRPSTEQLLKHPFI
# methodDescription: MAP4K4 Inhibition Assay Protocol No. 1 (Caliper LabChip, moesin-derived peptide phosphorylation)
# Format: biochemical
# measurementConditions: Assay 1; 1 nM enzyme, 10 uM ATP, 45 min
observable: IC50 (µM)
Please respond with the number in µM and leave the unit unwritten.

Here are 5 molecules together with their reported answers.
molecule	studyTarget	numericReadout
Nc1ncc(C(=O)NC2CC2)c2ccc(-c3cccc(F)c3)nc12 [Example 13]	purified human MAP4K4 kinase domain (Homo sapiens)	0.00129
Nc1ncc(C(=O)NCc2cnccn2)c2ccc(-c3cccc(F)c3)cc12 [Example 89]	purified human MAP4K4 kinase domain (Homo sapiens)	0.231
CS(=O)(=O)N1CCN(C(=O)c2cnc(N)c3cc(-c4cccc(F)c4)ccc23)CC1 [Example 48]	purified human MAP4K4 kinase domain (Homo sapiens)	4.2
CNC(=O)N1CC(NC(=O)c2cnc(N)c3cc(-c4cccc(F)c4)ccc23)C1 [Example 8]	purified human MAP4K4 kinase domain (Homo sapiens)	0.0112
Nc1ncc(C(=O)NCc2ccccn2)c2ccc(-c3cccc(F)c3)cc12 [Example 96]	purified human MAP4K4 kinase domain (Homo sapiens)	0.179

Which measured IC50 value corresponds to Cc1cc(NC(=O)c2cnc(N)c3cc(-c4cccc(F)c4)ccc23)ccn1 [Example 95] ?
0.0391
